- Measured target: T1, human IL-17A/F (human, UniProt Q16552 24-155; Q96PD4 31-163)
- T1 construct: Heterodimer of IL-17A and IL-17F, purified recombinant; also called HuIL-17A/F; Hu IL-17A/F
- T1 sequence (Q16552 24-155 limits assumed, chain 1 of 2): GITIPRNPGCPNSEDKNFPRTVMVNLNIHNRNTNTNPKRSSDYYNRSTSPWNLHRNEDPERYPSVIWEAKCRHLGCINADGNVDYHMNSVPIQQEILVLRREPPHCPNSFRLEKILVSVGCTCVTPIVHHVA
- T1 sequence (Q96PD4 31-163 limits assumed, chain 2 of 2): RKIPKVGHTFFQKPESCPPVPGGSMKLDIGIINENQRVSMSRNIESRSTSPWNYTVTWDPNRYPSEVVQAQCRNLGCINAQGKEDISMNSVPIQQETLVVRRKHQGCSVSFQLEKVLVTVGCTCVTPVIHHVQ
- Test description: SPR Biacore, captured binder
Measurement kind: kon (M⁻¹ s⁻¹)
Express the result in M⁻¹ s⁻¹ but write the number alone.

Ask | Give the measured kon of IL17-TN-L7-G9 (antibody, V domains shown, Fully human antibody) VH: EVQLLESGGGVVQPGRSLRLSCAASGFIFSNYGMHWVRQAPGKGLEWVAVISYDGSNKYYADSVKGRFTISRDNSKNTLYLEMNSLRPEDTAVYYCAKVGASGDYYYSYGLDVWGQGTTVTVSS VL: QSGLTQPPSASGTPGQTVSISCSGSNSNIGSHSVNWYQQVPGAAPKLLMYGIGQRPSGVPDRFSVSQSGTSASLAISGLQSEDEADYYCATWDDSLGGYVFGSGTKVTVLG .
Reply | 107000

Ask | // lookup kon for IL17-B6-5 (antibody, V domains shown, also called pJP243 B6.1 #5VH / pJP244 B6.1 #5VK) VH: EVQLVQSGAEVKKPGESVKISCKASGGSFRSYGISWVRQAPGQGLEWMGGITHFFGITDYAQKFQGRVTITADESTTTAYMELSGLTSDDTAVYYCAREPNDFWNGYYDTHDFDSWGQGTTVTVSS VL: EIVLTQSPDFQSVTPKEKVTITCRASQNIGSELHWYQQKPDQSPKLLIKYASHSISGVPSRFSGSGSGTDFTLTINGLEAEDAATYYCHQSDTLPHTFGQGTKVDIK
Reply | 1.33e+07

// next item, kon requested
Ask | State the recorded kon for this entry: IL17-G9-1 (antibody, V domains shown) VH: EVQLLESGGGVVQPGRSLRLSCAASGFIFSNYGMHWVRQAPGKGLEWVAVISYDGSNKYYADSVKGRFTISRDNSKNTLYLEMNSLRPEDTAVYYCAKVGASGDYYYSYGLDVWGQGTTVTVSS VL: QSVLTQPPSASGTPGQTVSISCSGSHSNIGRHPVDWYQQVPGAAPKLLMYYGGYRPSGVPDRFSGSQSGTSASLAISGLQSEDEADYYCATWDDRLVGYVFGSGTKVTVLG
Reply | 320000
